Target Or Test System: T1, human IL-2Rβ (human, UniProt P14784 27-240, limits assumed)
T1 construct: also called hIL-2Rβ; IL-2 receptor beta
T1 sequence (looked up): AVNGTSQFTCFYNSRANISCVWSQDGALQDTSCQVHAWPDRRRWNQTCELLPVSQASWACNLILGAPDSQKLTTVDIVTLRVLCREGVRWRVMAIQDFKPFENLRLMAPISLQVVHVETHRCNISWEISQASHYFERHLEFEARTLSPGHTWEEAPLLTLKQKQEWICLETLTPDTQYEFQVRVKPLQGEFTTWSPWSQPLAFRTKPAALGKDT
Procedure Details: SPR, steady state
Task for the reader: assign each of the following binders its reported pKd.
Value format note: pKd is -log10 of concentration (mol/L); just state the number.

Q: Record request: pKd value, item hIL-15 V49R/K11A (ligand) NWVNVISDLKAIEDLIQSMHIDATLYTESDVHPSCKVTAMKCFLLELQRISLESGDASIHDTVENLIILANNSLSSNGNVTESGCKECEELEEKNIKEFLQSFVHIVQMFINTGGGGSGHHHHHHHHGGGLNDIFEAQKIEWHE
Ans: 6.69

Q: Record request: pKd value, item hIL-15 V49R/K10E (ligand) NWVNVISDLEKIEDLIQSMHIDATLYTESDVHPSCKVTAMKCFLLELQRISLESGDASIHDTVENLIILANNSLSSNGNVTESGCKECEELEEKNIKEFLQSFVHIVQMFINTGGGGSGHHHHHHHHGGGLNDIFEAQKIEWHE
Ans: 6.44

Q: Record request: pKd value, item hIL-15 V49R/K11Q (ligand) NWVNVISDLKQIEDLIQSMHIDATLYTESDVHPSCKVTAMKCFLLELQRISLESGDASIHDTVENLIILANNSLSSNGNVTESGCKECEELEEKNIKEFLQSFVHIVQMFINTGGGGSGHHHHHHHHGGGLNDIFEAQKIEWHE
Ans: 6.97

Q: Record request: pKd value, item hIL-15 V49R/N4D (ligand) NWVDVISDLKKIEDLIQSMHIDATLYTESDVHPSCKVTAMKCFLLELQRISLESGDASIHDTVENLIILANNSLSSNGNVTESGCKECEELEEKNIKEFLQSFVHIVQMFINTGGGGSGHHHHHHHHGGGLNDIFEAQKIEWHE
Ans: 6.44

Q: Record request: pKd value, item hIL-15 V49R/S29K (ligand) NWVNVISDLKKIEDLIQSMHIDATLYTEKDVHPSCKVTAMKCFLLELQRISLESGDASIHDTVENLIILANNSLSSNGNVTESGCKECEELEEKNIKEFLQSFVHIVQMFINTGGGGSGHHHHHHHHGGGLNDIFEAQKIEWHE
Ans: 6.61

Q: Record request: pKd value, item hIL-15 V49R/K10H (ligand) NWVNVISDLHKIEDLIQSMHIDATLYTESDVHPSCKVTAMKCFLLELQRISLESGDASIHDTVENLIILANNSLSSNGNVTESGCKECEELEEKNIKEFLQSFVHIVQMFINTGGGGSGHHHHHHHHGGGLNDIFEAQKIEWHE
Ans: 6.94
